# credit: ChEMBL document CHEMBL1125534

# TEST_PROTOCOL: Evaluated for the inhibitory activity against Leukotriene A4 hydrolase
# Set-up: species or system Sus scrofa
pIC50: −log10 of the molar value.
MEASURED_METRIC: pIC50

{"SAMPLE_SMILES": "O=C(O)COCCCCc1ccc(CCCc2ccccc2)s1", "pIC50": 5.82}
{"SAMPLE_SMILES": "O=C(O)CCCCCCc1ccc(CCCc2ccccc2)cc1", "pIC50": 5.47}
{"SAMPLE_SMILES": "COc1ccc(Cc2ccc(CCCCCCC(=O)O)cc2)cc1", "pIC50": 5.04}
{"SAMPLE_SMILES": "O=C(O)CCCCCCc1ccc(Cc2ccccc2)cc1", "pIC50": 5.52}

P: O=C(O)CCCCCSc1ccc(CCCc2ccccc2)cc1
Q: Cc1ccc(Cc2ccc(CCCCCCC(=O)O)cc2)cc1
In the pair P and Q , the larger recorded pIC50 belongs to which? Answer format: the label of the selected item.
P
(P: 5.21, Q: 4.68)

P: O=C(O)CCCCCCc1ccc(Cc2cnc3ccccc3c2)cc1
Q: O=C(O)CCCCCCc1ccc(Cc2ccc(C(F)(F)F)cc2)cc1
Endpoint returns the identifier whose pIC50 is numerically larger, either P or Q . I would appreciate it if you answered with the label of your choice.
P
(P: 5.30, Q: 3.73)

I: O=C(O)CCCCCCc1ccc(Cc2ccccn2)cc1
II: O=C(O)CCCCCCc1ccc(CCc2ccccc2)cc1
When their pIC50 values are compared, which is larger, I or II ? Answer = label.
I
(I: 5.11, II: 4.52)

###

# Tested on: Leukotriene A-4 hydrolase (Sus scrofa)
# TEST_PROTOCOL: Inhibitory activity against Leukotriene A4 hydrolase at 30 mg/kg (po) in rat plasma extracts
MEASURED_METRIC: inhibition (%)

Some entries whose results are on file:
{"SAMPLE_SMILES": "O=C(O)CCCCCSc1ccc(CCCc2ccccc2)cc1", "ASSAY_RESULT": 20}
{"SAMPLE_SMILES": "O=C(O)CCCCCSc1ccc(CCCc2ccccc2)s1", "ASSAY_RESULT": 19}
{"SAMPLE_SMILES": "O=C(O)CCCCCCc1ccc(CCCc2ccccc2)cc1", "ASSAY_RESULT": 15}
{"SAMPLE_SMILES": "O=C(O)COCCCCc1ccc(CCCc2ccccc2)s1", "ASSAY_RESULT": 54}

P: O=C(O)CCCCCCc1ccc(CCCc2ccccc2)s1
Q: O=C(O)CCCCCCc1ccc(Cc2cnc3ccccc3c2)cc1
Task for the reader: decide whether P or Q has the larger inhibition. // output: label of the selected item
P

###

# TEST_PROTOCOL: Evaluated for the inhibitory activity against Leukotriene A4 hydrolase
# Design: species or system Sus scrofa
MEASURED_METRIC: IC50 (µM)

Example entries begin here.
{"COMPOUND": "O=C(O)CCCCCCc1ccc(CCCc2ccccc2)s1", "UNIT_SYMBOL": "µM", "IC50": 2.9}
{"COMPOUND": "NC(=O)Nc1ccc(Cc2ccc(CCCCCCC(=O)O)cc2)cc1", "UNIT_SYMBOL": "µM", "IC50": 1.7}
{"COMPOUND": "Nc1ccc(Cc2ccc(CCCCCCC(=O)O)cc2)cc1", "UNIT_SYMBOL": "µM", "IC50": 0.9}
{"COMPOUND": "O=C(O)CCCC(O)CCc1ccc(CCCc2ccccc2)s1 (stereo not given)", "UNIT_SYMBOL": "µM", "IC50": 6.2}

I: O=C(O)CCCCCCc1ccc(Cc2ccc([N+](=O)[O-])cc2)cc1
II: O=C(O)CCCCCCc1ccc(CCc2ccccc2)s1
III: O=C(O)CCCCCSc1ccc(Cc2ccccc2)cc1
Order the items by recorded IC50; the first position goes to the largest value. Form field (ranking): labels in requested order.
I, III, II

1: O=C(O)CCCCCSc1ccc(CCCc2ccccc2)s1
2: O=C(O)CCCC(=O)CCc1ccc(CCCc2ccccc2)s1
Could you tell me which of these two has the smaller IC50 figure? First: 1 Second: 2 Let me know the label of the one you choose.
1
(1: 2.8 µM, 2: 6.3 µM)

###

# Tested on: Leukotriene A-4 hydrolase (Sus scrofa)
# TEST_PROTOCOL: Inhibition of LTA4 hydrolase mediated LTB4 biosynthesis by porcine leukocytes at 2*10e-5M
MEASURED_METRIC: inhibition (%)

{"SAMPLE_SMILES": "O=C(O)CCCC(=O)CCc1ccc(CCCc2ccccc2)s1", "inhibition / %": 82}
{"SAMPLE_SMILES": "O=C(O)CCCCCSc1ccc(CCCc2ccccc2)s1", "inhibition / %": 79}
{"SAMPLE_SMILES": "O=C(O)CCCCCSc1ccc(Cc2ccccc2)cc1", "inhibition / %": 82}
{"SAMPLE_SMILES": "O=C(O)CCCCCCc1ccc(Cc2ccccc2)cc1", "inhibition / %": 79}
{"SAMPLE_SMILES": "COc1ccc(CCCc2ccc(CCCCCCC(=O)O)s2)cc1", "inhibition / %": 80}
